Task for the reader: assign each of the following sequences its reported IC50.
# target: soluble HLA-A*0201 (Homo sapiens, UniProt P04439, D140Y/D185E/D98H/E176V/E277Q/G131W/G231S/I119V/I121R/I166T/I218V/L300P/L318F/N151K/N90K/P208A/P217A/Q86G/Q94H/R138H/R169H/T345S)
# protocol-details: Fluorescence polarization
# Type: binding
Where no end group is shown, it is not given here.
Numeric answer only, unit µM assumed.

Q: Please give the measured IC50 for this sequence: `IGPGIAFYAT`
Result: 813

Q: Param item: `SLFNTIATL`
Result: 8.32

Q: Try this sequence too: `TLDAWVKVV`
Result: 20

Q: Try this sequence next: `PVTFGWCFKL`
Result: 3020

Q: And for `IGPGRAFYAT` ?
Result: 437

Q: Another sequence to look at: `SLFNTVATL`
Result: 6.46

Q: Continue with `ALNAWVKVV`
Result: 8.51

Q: Now this one: `PLTLGWCFKL`
Result: 1260

Q: Queued: `PLNAWVKVV`
Result: 64.6

Q: Please answer likewise for `SLFNTVATP`
Result: 174

Q: Same question for `TLSAWVKVV` please.
Result: 15.1

Q: Please give the result for `IGSGRAFYAT` too.
Result: 3630

Q: Can you check `IGPGRAFYAA` next?
Result: 30.2

Q: Proceed to SLFNTVAAL [SLFNTVAAL]
Result: 6.92

Q: Note, next up: `PITFGWCFKL`
Result: 2240
